Data origin, for the record: patent US20210246204A1

This section presents binders with their documented Fold increase in potency compared to Chimeric Ab values.
tested on: human Siglec-7 on primary human monocyte-derived dendritic cells (human, UniProt Q9Y286 19-467)
Sequence (Q9Y286 19-467): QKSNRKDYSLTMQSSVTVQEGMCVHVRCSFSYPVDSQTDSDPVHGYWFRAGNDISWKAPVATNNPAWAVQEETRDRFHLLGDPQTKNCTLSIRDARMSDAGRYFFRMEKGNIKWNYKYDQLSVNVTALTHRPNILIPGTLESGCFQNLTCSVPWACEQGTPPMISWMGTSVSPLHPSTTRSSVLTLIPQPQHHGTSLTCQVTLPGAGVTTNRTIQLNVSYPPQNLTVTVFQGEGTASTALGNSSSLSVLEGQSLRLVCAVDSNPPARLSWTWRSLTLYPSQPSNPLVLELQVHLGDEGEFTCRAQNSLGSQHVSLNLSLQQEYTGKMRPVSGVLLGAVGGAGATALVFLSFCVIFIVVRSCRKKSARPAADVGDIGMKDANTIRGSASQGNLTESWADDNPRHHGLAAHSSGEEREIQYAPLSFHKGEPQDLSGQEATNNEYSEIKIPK
experimental details: cell-based or functional assay
measurement kind: Fold increase in potency compared to Chimeric Ab (fold)

binder	numeric result
S7AB-H8.40 (antibody, V domains shown) VH: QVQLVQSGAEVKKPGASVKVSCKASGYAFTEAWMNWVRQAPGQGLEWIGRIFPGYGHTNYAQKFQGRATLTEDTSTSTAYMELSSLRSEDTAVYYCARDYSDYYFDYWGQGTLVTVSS VL: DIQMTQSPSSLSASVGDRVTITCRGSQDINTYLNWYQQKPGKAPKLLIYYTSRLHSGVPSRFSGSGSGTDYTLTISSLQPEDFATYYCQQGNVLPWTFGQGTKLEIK	8.9
S7AB-H8.30.1 (antibody, V domains shown) VH: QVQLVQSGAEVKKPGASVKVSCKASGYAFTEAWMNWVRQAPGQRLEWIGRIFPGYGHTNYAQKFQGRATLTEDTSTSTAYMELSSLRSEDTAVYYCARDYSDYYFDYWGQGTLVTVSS VL: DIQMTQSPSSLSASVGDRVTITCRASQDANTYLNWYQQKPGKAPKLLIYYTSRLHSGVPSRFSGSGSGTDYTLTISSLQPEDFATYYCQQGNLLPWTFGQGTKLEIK	8.1
S7AB-H8.43 (antibody, V domains shown, also called S7AB-H.43) VH: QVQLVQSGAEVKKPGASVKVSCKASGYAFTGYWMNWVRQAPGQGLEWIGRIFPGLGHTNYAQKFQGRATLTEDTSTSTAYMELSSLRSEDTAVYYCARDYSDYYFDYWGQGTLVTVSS VL: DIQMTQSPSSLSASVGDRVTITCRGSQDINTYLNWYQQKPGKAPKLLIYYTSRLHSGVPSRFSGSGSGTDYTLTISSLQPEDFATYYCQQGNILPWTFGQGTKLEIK	30.8
S7AB-H8.32 (antibody, V domains shown) VH: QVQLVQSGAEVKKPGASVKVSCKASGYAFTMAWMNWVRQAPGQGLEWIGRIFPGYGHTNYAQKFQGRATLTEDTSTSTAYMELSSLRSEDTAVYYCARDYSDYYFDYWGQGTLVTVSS VL: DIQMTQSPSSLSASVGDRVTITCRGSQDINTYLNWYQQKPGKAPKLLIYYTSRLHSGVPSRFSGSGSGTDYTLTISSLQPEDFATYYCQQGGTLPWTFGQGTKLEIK	11.2
S7AB-H8.4 (antibody, V domains shown) VH: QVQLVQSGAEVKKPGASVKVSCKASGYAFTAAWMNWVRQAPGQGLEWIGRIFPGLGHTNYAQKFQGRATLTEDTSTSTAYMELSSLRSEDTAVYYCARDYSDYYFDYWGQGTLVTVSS VL: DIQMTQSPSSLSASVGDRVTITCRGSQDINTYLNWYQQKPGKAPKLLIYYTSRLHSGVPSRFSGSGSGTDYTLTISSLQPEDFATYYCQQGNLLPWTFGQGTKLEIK	12.9
